Each item that follows carries a reported growth.
system: NCI-H23 lung; assay: NCI-60 one-dose screen, 48 h (100 = growth as untreated, 0 = no growth, -100 = all killed); conditions: 10 µM unless noted
This is part of a sample that, as a whole, favours compounds with a hit. Of some 83,000 tested, about 20% had one in any assay. Active and inactive are the calls of the source. Rule for the calls: active = growth percent below 10; inactive = the rest.

COMPOUND	TGT	growth
COc1ccc(S(=O)(=O)Nc2c(/C=C\c3cc(OC)c(OC)c(OC)c3)ccc(OC)c2O)cc1OC	NCI-H23 lung	33.2% (inactive)
O=C(CCCCCCC(=O)Nc1ccc(N(CCCl)CCCl)cc1)NO	NCI-H23 lung	29.2% (inactive)
O=C1C2C(C(=O)[N]1[Hg][c]1ccccc1)C1(Cl)C(Cl)=C(Cl)C2(Cl)C1(Cl)Cl (stereo not drawn)	NCI-H23 lung	-8.01% (active)
CC[C@]12C=CCN3CC[C@@]4(c5ccc(OC)cc5N(C)[C@H]4[C@@](O)(C(=O)OC)[C@@H]1OC(=O)CCCC[P+](c1ccccc1)(c1ccccc1)c1ccccc1)[C@@H]32	NCI-H23 lung	6.4% (active)
CNC(=O)Oc1ccc(C(C)(C)C)cc1OC(=O)NC	NCI-H23 lung	100% (inactive)
C[C@]12CCc3sc(-c4cccc(F)c4)nc3C1=CC[C@@H]1[C@@H]2CC[C@]2(C)C(=O)CC[C@@H]12	NCI-H23 lung	62.7% (inactive)
Cc1cnc(/C=C/C(=O)O)cc1-c1cc2c(cc1C)C(C)(C)CCC2(C)C	NCI-H23 lung	79.2% (inactive)
CC(=O)[C@H]1CC[C@H]2[C@@H]3CC[C@H]4C[C@H](N)CC[C@]4(C)[C@H]3CC[C@]12C	NCI-H23 lung	86.7% (inactive)
COc1ccc(/C=C\c2cc(OC)c(OC)c(OC)c2)cc1OCC(=O)Nc1nc2ccc(OC(F)(F)F)cc2s1	NCI-H23 lung	35.6% (inactive)
COc1ccc(/C=C/c2cc(OC)c(OC)c(OC)c2)cc1NC(=O)/C=C/c1ccc(F)cc1	NCI-H23 lung	6.1% (active)
CCOC(=O)CCC(NC(=O)C(Cc1ccc(N(CCCl)CCCl)cc1)NC=O)C(=O)OCC (stereo not drawn)	NCI-H23 lung	1.98% (active)
COC(=O)[C@@H](C)C[C@H](Cc1ccc(F)cc1)NC(=O)c1csc([C@@H](C[C@H](C(C)C)N(C)C(=O)[C@@H](NC(=O)[C@H]2CCCCN2C)C2CC2)OC(C)=O)n1	NCI-H23 lung	36% (inactive)
CCOC(=O)c1c(C)n(Cc2ccccc2)c2cc(CN(C)C)c(O)cc12	NCI-H23 lung	57.2% (inactive)
O=[N+]([O-])CC(c1ccccc1Cl)c1c(-c2ccccc2)[nH]c2ccccc12 (stereo not drawn)	NCI-H23 lung	53.8% (inactive)
O=[N+]([O-])c1cc([N+](=O)[O-])c(Nn2c3ccccc3c3ccccc32)c([N+](=O)[O-])c1	NCI-H23 lung	-3.12% (active)
CCCC(C)C1(CC)C(=O)NC(=O)N(C)C1=O (stereo not drawn)	NCI-H23 lung	100% (inactive)
COC(=O)[C@H](Cc1ccccc1)NNC(=O)c1csc([C@@H](C[C@H](C(C)C)N(C)C(=O)[C@@H](NC(=O)[C@H]2CCCCN2C)C2CC2)OC(C)=O)n1	NCI-H23 lung	29.2% (inactive)
CCCCCCCCOC(=O)CCN1CC1	NCI-H23 lung	111% (inactive)

Source of measurements: PubChem BioAssay (NCI)
